We begin with a simple list: items and their reported self-cleavage.
B1: HDV Ribozyme (parent)
chain: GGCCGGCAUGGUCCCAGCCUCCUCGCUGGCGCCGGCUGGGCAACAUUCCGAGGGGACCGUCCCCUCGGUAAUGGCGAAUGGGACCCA

variants of: B1; experiment: self-cleavage, relative activity (ratio to wild type); higher = more cleavage; co-transcriptional
readoutName: self-cleavage

itemSequence | readoutName | endpointResult
GGCCGGCAUGGUCCCAGCCUCUUCGCUGGUGCCGGCUGGGCAACAUUCCGAGGGGACCGUCCCCUCGGUAAUGGCGAAUGGGACCCA | self-cleavage | 0.194
GGCCGGCAUGGUCGCAGCCUCCUCGCUGGCGCCGGCUGGGCAACAUUCCGAGCGGACCGUCCCCUCGGUAAUGGCGAAUGGGACCCA | self-cleavage | 0.727
GGCCGGCAUGGUCCCAGACUCCUCGCUGGCGCCUGCUGGGCAACAUUCCGAGGGGACCGUCCCCUCGGUAAUGGCGAAUGGGACCCA | self-cleavage | 0.0489
GGCCGGCAUGGUCCCAGCCUCCUCGCUGGCGCCGGCUGGGCAACAUUCCGAGGGGACCGUCCCGUCGGUAAUGGCGAAUGGUACCCA | self-cleavage | 0.228
GGCCGGAAUGGUCCCAGCCUCCUCGCUGGCGCCGGCUGGGCAACAUUCCGAGGGGACCGUCCCCUCGGAAAUGGCGAAUGGGACCCA | self-cleavage | 0.449
GGCCGGCAUGGUCCCAGCCUCCUCGCUGGCGCCGGCUGGGCAACAUUCCGAGCGGACCGCCCCCUCGGUAAUGGCGAAUGGGACCCA | self-cleavage | 1
GGCCGGCAUGGUCCCAGCCUCCUCGCUGGCGCCGGCUUGGCAACAUUCCGAGGGGACCGUCCCCUCGGUAAUGGCGAAUGGGACCGA | self-cleavage | 0.0573
GGCCGGCACGGUCCCAGCCUCCUCGCUGGCGCCGGCUGGGCAACAUUCCGAGGGGACCGUCCCCUCGGUAAUGGCGUAUGGGACCCA | self-cleavage | 0.867
GGCCGGCAUGGUCCCAGCCUCCUCGCUGGCGCCGGCCGGGCAACAUUCCGAGGGGACCGUCCCCUCGGUAAUGGCGACUGGGACCCA | self-cleavage | 0.196
GGCCGGCAUGGUUCCAGCCUCCUCGCUGGCGCCGGCUGGGCAACAUUCCGAGGGGACCGUCCCCCCGGUAAUGGCGAAUGGGACCCA | self-cleavage | 0.604
GGCCGGCAUGGUCCCAGCCUCCUCGCUGGCGCCGGCUGGGCAACAUUCCGAGGGGACGGUCCCCACGGUAAUGGCGAAUGGGACCCA | self-cleavage | 0.944
GACCGGCAUGGUCCCAGCCUCCUCGCCGGCGCCGGCUGGGCAACAUUCCGAGGGGACCGUCCCCUCGGUAAUGGCGAAUGGGACCCA | self-cleavage | 0.125
GGCCGGCAUGGUCCCCGCCUCCUCGCUGGCGCCGGCUGGGCAACAUUCCUAGGGGACCGUCCCCUCGGUAAUGGCGAAUGGGACCCA | self-cleavage | 0.692
AGCCGGCAUGGUCCCAGCCUCCUCGCUGGCGCCGGCUGGGCAACAUUCCGAGGGGACCGUCCCCUCGUUAAUGGCGAAUGGGACCCA | self-cleavage | 0.178
GGCCGGCAUGGUCCCCGCCUUCUCGCUGGCGCCGGCUGGGCAACAUUCCGAGGGGACCGUCCCCUCGGUAAUGGCGAAUGGGACCCA | self-cleavage | 0.199
GGCCGGCAUGGUCCCAGCCUCCUCGCUGGCGACGGCUGGGCAACAUUCCGAAGGGACCGUCCCCUCGGUAAUGGCGAAUGGGACCCA | self-cleavage | 0.302
GGCCGGCAUGGUCCCAGGCUCCUCGCAGGCGCCGGCUGGGCAACAUUCCGAGGGGACCGUCCCCUCGGUAAUGGCGAAUGGGACCCA | self-cleavage | 0.0665
GGGCGGCAUGGUCCCAGCCUCCUCGCUGGCGCCGGCUGGGCAACAUUCCGAGGGGCCCGUCCCCUCGGUAAUGGCGAAUGGGACCCA | self-cleavage | 0.681
GGCCGGCAUGGUCCCAGCCUCCUCGCUGGCGCCGGCUGGGCAACAUUCCGAGGGGACCGUCCUCUCGGUAAUGGCGAAUGGGACCCU | self-cleavage | 1.01
GGCCGGCAUGGUCCCAGCCUCCUCGCUGGCGCCGGCUGGGCAACAUUCCGAGGGGACCAUCCCCUCGGUAAUGGCGCAUGGGACCCA | self-cleavage | 0.475
GGCCGGCAUGGUCCCAGCCUCCUCGCUGGCGCCGGCUGGGCAACAUUCCGAAGGGACCGUCCCCUCGGGAAUGGCGAAUGGGACCCA | self-cleavage | 0.955
GGCCGGCAUGGUCCCAGCCUCCUCGCUGGCGCCAGCUGGGCAACAUUCCGAGGGGACCGUCCCCUCGGUAAUUGCGAAUGGGACCCA | self-cleavage | 0.0437
